Each item that follows carries a reported CC50 at 96 h.
Test: Cytotoxicity against MT4 cells after 4 days by MTT method
Format: cell-based
Details: human
Numeric answer only, unit µM assumed.

{"testSmiles": "C=CCOCn1c(C(=O)c2cccc3ccccc23)c(C)c(=O)[nH]c1=O", "CC50 at 96 h [µM]": 131}
{"testSmiles": "CCOCn1c(C(=O)c2cccc3ccccc23)c(C)c(=O)[nH]c1=O", "CC50 at 96 h [µM]": 51.7}
{"testSmiles": "CCc1c(C(=O)c2cccc3ccccc23)n(CC#Cc2ccccc2)c(=O)[nH]c1=O", "CC50 at 96 h [µM]": 17}
{"testSmiles": "CCc1c(C(=O)c2cccc3ccccc23)n(COCC2CC2)c(=O)[nH]c1=O", "CC50 at 96 h [µM]": 45.3}

[Q] Quick check: CC50 at 96 h of CCc1c(C(=O)c2cccc3ccccc23)n(COCc2ccc([N+](=O)[O-])cc2)c(=O)[nH]c1=O ?
[A] 30.5

[Q] Quick check: CC50 at 96 h of C=CCOCn1c(C(=O)c2cccc3ccccc23)c(CC)c(=O)[nH]c1=O ?
[A] 45.6

[Q] Quick check: CC50 at 96 h of Cc1c(C(=O)c2cccc3ccccc23)n(CC#Cc2ccccc2)c(=O)[nH]c1=O ?
[A] 29.9

[Q] Quick check: CC50 at 96 h of CCc1c(C(=O)c2cccc3ccccc23)n(COCc2ccccc2)c(=O)[nH]c1=O ?
[A] 38.6

[Q] Quick check: CC50 at 96 h of CCc1c(C(=O)c2cccc3ccccc23)n(CC2CC=CC2)c(=O)[nH]c1=O ?
[A] 18.6
